# System: 786-0 renal
# Measurement protocol: NCI tumour cell line growth inhibition, 48 h; in the data active = GI50 below about 0.43 µM; inactive = the rest
Pick one: active, inactive

Before answering, review these 5 worked examples.
# Compound, Category
records = [
    ("CCCCNC(=O)Oc1ccc(/C(=C(/C)Cc2ccc(OC)cc2)c2ccc(OCCN3CCCC3)cc2)cc1", "inactive"),
    ("Nc1nc(N)c2c(n1)NC(c1ccccc1)C1CCc3ccccc3C1=N2 (centres undefined)", "inactive"),
    ("COC(=O)/C=C1/SC(N2N=C(c3cccs3)CC2c2ccc(F)cc2)=NC1=O (centres undefined)", "inactive"),
    ("CN1CCN(c2nc(NCCCNc3ccnc4cc(Cl)ccc34)c3ccccc3n2)CC1", "inactive"),
    ("C/C=C/[C@H]1O[C@@H]2C(=C[C@H]1O)C(=O)O[C@H]2C", "inactive"),
]

GET /call?item= Cc1cc(C(=O)NC(CCC(=O)O)C(=O)O)sc1CCC1CNc2nc(N)[nH]c(=O)c2C1 (centres undefined) returns the recorded outcome of this test. active

Could you please tell me the result logged for `CCc1cc2ncc(CN3CCN(c4ccc(C(=O)NC)nc4)CC3)cc2[nH]c1=O` in this assay? inactive

Check the results log: what was the call for COC1C(OC(=O)/C=C/C=C/C=C/C=C\C(=O)O)CCC2(CO2)C1C1(C)OC1CC=C(C)C (centres undefined) ? inactive

Kindly provide the recorded test outcome for the following compound: `COCCN1CCN(Cc2ccc(-c3n[nH]c4c3C(=O)c3c(NC(=O)NN5CCOCC5)cccc3-4)cc2)CC1` active

###

# System: IGROV1 ovarian
# Measurement protocol: NCI tumour cell line growth inhibition, 48 h
Value kind: TGI

// below: answered molecules
# Molecule, Experimental target, TGI
measured = [
    ("N#Cc1c(O)c(N=Nc2ccc(Cl)cc2)c(=O)n2c1[nH]c1ccccc12", "IGROV1 ovarian", "> 100 µM"),
    ("O=C(NCCN1CCCCC1)c1ccc(I)cc1", "IGROV1 ovarian", "> 100 µM"),
    ("Cc1ccc(C2=Nc3c(N)ncnc3NC(c3ccc4c(c3)OCO4)C2)cc1 (configuration not stated)", "IGROV1 ovarian", "26.2 µM"),
    ("Cc1cc(C(=O)O)c(C)n1-c1cccc(C(=O)O)c1", "IGROV1 ovarian", "> 100 µM"),
]

Which TGI is reported for this molecule? `NC(N)=Nc1nc2ccc([N+](=O)[O-])cc2[nH]1` > 100 µM

Quick one: TGI for CC(=O)c1cccc(NC(=O)C(=O)C(c2cnc3ccc([N+](=O)[O-])cc3n2)[N+](=O)[O-])c1 (configuration not stated) ? > 100 µM

Record request: TGI value, item CC1(S)CC2C(CC1Sc1ccccc1)C2(C)C (configuration not stated) > 100 µM

Entry `O=S(=O)([O-])[O-].[Cl-].[NH2-].[NH2-].[NH2-].[NH2-].[Ru+3].c1ccncc1` has what TGI? > 100 µM

###

# System: UO-31 renal
# Measurement protocol: NCI tumour cell line growth inhibition, 48 h
Value kind: GI50

Solved entries (count: 6):
# Molecule, GI50
measured = [
    ("COc1cc(-c2n/c(=C\\c3c(O)[nH]c4cc(Cl)ccc34)cc3c2=Nc2ccccc2-3)cc(OC)c1OC", "18.3 µM"),
    ("O=[n+]1c2ccccc2n([O-])c2cc(Cl)ccc21", "3.52 µM"),
    ("CN1CCN(Cc2ccc(NC(=O)c3cncc(C#Cc4cncc5nccnc45)c3)cc2C(F)(F)F)CC1", "2.16 µM"),
    ("N=C(N)c1ccc(-c2ccc(-c3cccs3)s2)s1", "0.318 µM"),
    ("C[C@]12CC[C@H]3[C@@H](C[C@@H]4SC(Nc5ccccc5)=N[C@@]45CC(O)CC[C@]35C)[C@@H]1CCC2O (some centres undefined)", "1.67 µM"),
    ("CCC(=O)Nc1ccccc1C#C/C=C\\C#Cc1ccccc1C(F)(F)F", "2.59 µM"),
]

So what GI50 did Cc1ccc(C2=C(c3ccc(C)cc3)C3(c4ccc(C)cc4)C4C(=O)c5ccccc5C(=O)C4C2(c2ccc(C)cc2)S3=O)cc1 (centres undefined) get with UO-31 renal? > 100 µM

Can you look up GI50 on UO-31 renal for `Cc1[nH]nc2c1N=C(c1ccccc1F)c1cc(C(N)=O)ccc1N2` ? 4.31 µM

Item `COc1cc2ncnc(Nc3ccc4c(cnn4Cc4ccccc4)c3)c2cc1OC` with UO-31 renal - GI50? 3.96 µM

###

# Tested on: TK-10 renal
# Measurement protocol: NCI tumour cell line growth inhibition, 48 h
Value kind: TGI

Examples with answers:
# Molecule, TGI
records = [
    ("O=S1(=O)CCCS(=O)(=O)C(c2ccccc2)=C1c1ccccc1", "> 100 µM"),
    ("CCOc1ccc(N=NS(=O)(=O)O)cc1", "> 100 µM"),
]

What is its TGI for TK-10 renal? Entry: Cc1ccc(/C=C2\CCCC(CN(C)C)C2=O)cc1 (stereo unspecified) 8.26 µM

###

# System: NCI-H460 lung
# Measurement protocol: NCI tumour cell line growth inhibition, 48 h
Value kind: TGI

Here's what some known entries look like.
# Molecule, TGI
measured = [
    ("CCOC(=O)C1=C(C)N(NC(N)=O)C(C)(O)C12CCOC2=O (configuration not stated)", "> 100 µM"),
    ("O=[N+]([O-])/C(C(Cl)=C(Cl)Cl)=C(\\Nc1ccccc1)n1nnc2ccccc21", "> 100 µM"),
    ("Cc1ccn2c(CCc3nnc4cc(C)ccn34)nnc2c1", "> 100 µM"),
    ("CCOC(=O)c1nc2ccccc2nc1Oc1cc(OC)c(OC)c(OC)c1", "> 100 µM"),
]

Param readout= TGI; system= NCI-H460 lung; entry= `c1cncc(C2Nc3cccc4cccc(c34)N2)c1` ; returns value. > 100 µM

Any idea what TGI came out for `CCCCCCCCCCCCOc1ccc(/C=C/C2=[N+](CCCl)CCO2)cc1` on NCI-H460 lung? > 100 µM

Checklist item: TGI tested on NCI-H460 lung, entry `CCCCC(=O)N/N=C/c1c(O)ccc2ccccc12` , value? > 100 µM

Lab request: please report TGI under test system NCI-H460 lung for `C/C(=N\N=C(\[Se])N(C)C)c1ccccn1` 4.17 µM

I'm curious: which TGI was measured for `C[CH2][Ge]([CH2]C)([CH2]C)[O]C(=O)CCC(=O)[O][Ge]([CH2]C)([CH2]C)[CH2]C` tested on NCI-H460 lung? > 100 µM

Query for NCI-H460 lung: what TGI does the record show for Cc1cnc2c(c1)C(=O)C1=C(OC(C)(C)CC1O)C2=O (configuration not stated) ? 23.9 µM

Hi! What's the reported TGI for `CC(=O)ON1C(=O)c2cccc3cccc(c23)C1=O` on NCI-H460 lung? 41.7 µM

###

# System: KM12 colon
# Measurement protocol: NCI tumour cell line growth inhibition, 48 h
Where a SMILES comes first, the peptide text is derived from it.
Reported log10 TGI values for the following molecules.
Hey, these are logged values: log10 of TGI, µM being the unit before logging.

Worked examples, 5 molecules total:
# Molecule, log10 TGI
data = [
    ("COC(=O)/C=C1/SC(N2N=C(c3cccs3)CC2c2ccc(F)cc2)=NC1=O (centres undefined)", 0.58),
    ("COc1ccc(-c2cc(-c3cc(Cl)cc(Br)c3O)[nH]c(=O)n2)cc1", 1.62),
    ("CC(C)CC(NC(=O)C(Cc1ccccc1)NC(=O)C(Cc1c[nH]c2ccccc12)NC(=O)CNC(=O)C(N)Cc1ccc(O)cc1)C(=O)O (centres undefined) (H-YGWFL-OH; configuration not given here)", 1.76),
    ("COc1cc(C2C3=C(COC3=O)Nc3c2ccc2c3CCCC2)cc2c1OCO2 (centres undefined)", -0.39),
    ("COC1=CC(=O)c2c(c(COP(=O)(N(C)CCBr)N(C)CCBr)cn2C)C1=O", 0.03),
]

Would you kindly share the measured log10 TGI for `COc1ccc(/C=C2\CN(Cc3cn(CCNc4ccnc5cc(Cl)ccc45)nn3)C/C(=C\c3ccc(OC)c(OC)c3)C2=O)cc1OC` ? 0.56

###

Reported values of TGI for individual entries
# Test system: HOP-62 NSCLC
# Measurement protocol: NCI tumour cell line growth inhibition, 48 h

Known results for compounds:
# Mol smiles, Experimental target, TGI
measured = [
    ("NC(=O)/C=c1/c2ccccc2n2nc3ccccc3c12", "HOP-62 NSCLC", "77.2 µM"),
    ("Cc1ncc([N+](=O)[O-])n1CCNCCCn1ccnc1[N+](=O)[O-]", "HOP-62 NSCLC", "> 100 µM"),
    ("O=C(CCCl)NNC1=NCCCCN1", "HOP-62 NSCLC", "> 100 µM"),
]

Any idea what its TGI is? The compound is `O=C1c2ccccc2CC12Cc1ccccc1C2` > 100 µM

Any idea what TGI was measured for `COC(=O)c1c[nH]c2c1-c1cc(C(=O)OCc3ccccc3)n(S(=O)(=O)c3ccc(C)cc3)c1C(=O)C2=O` ? 1.06 µM

TGI lookup needed for `O=S(=O)([O-])[O-].[Cl-].[NH2-].[NH2-].[NH2-].[NH2-].[Ru+3].c1ccncc1` , thanks. > 100 µM

The measured values listed here are drawn from PubChem BioAssay (NCI).
